Tested on: Escherichia coli TOP10
Assay: shrunken log2 fold change of peptide-encoding DNA abundance (4.5 h post-induction vs induction); higher = less antimicrobial activity (less host growth inhibition)
Conditions: time post-induction: 4.5 h; library: site-saturation at positions 5, 18, 19, 20
quantity.kind: shrunken log2 fold change
# answer = number (no unit)

Below are worked cases with known answers.
          residue_sequence          assayed_target  numeric_result
0  RRIRYRPPRLPRPRPRPACDPRP  Escherichia coli TOP10        -0.00452
1  RRIRYRPPRLPRPRPRPSWYPRP  Escherichia coli TOP10          -0.772
2  RRIRQRPPRLPRPRPRPDKQPRP  Escherichia coli TOP10          0.0312

**Query** Name the reported shrunken log2 fold change value associated with the sequence RRIRPRPPRLPRPRPRPNAIPRP
**Result** -0.0755

**Query** Quick one: RRIRFRPPRLPRPRPRPWFRPRP
**Result** -0.151

**Query** Quick one: RRIRQRPPRLPRPRPRPGPQPRP
**Result** 0.722

**Query** Quick one: RRIRDRPPRLPRPRPRPKQMPRP
**Result** 0.113

**Query** Quick one: RRIRARPPRLPRPRPRPGMFPRP
**Result** 0.295

====

Test system: Escherichia coli TOP10
Experiment: shrunken log2 fold change of peptide-encoding DNA abundance (4.5 h post-induction vs induction); higher = less antimicrobial activity (less host growth inhibition)
Details: time post-induction: 4.5 h; library: site-saturation at positions 5, 18, 19, 20
quantity.kind: shrunken log2 fold change
# answer = number (no unit)

>>> df
          residue_sequence              quantity_kind  numeric_result
0  RRIRPRPPRLPRPRPRPFIKPRP  shrunken log2 fold change          -0.926
1  RRIRTRPPRLPRPRPRPEWKPRP  shrunken log2 fold change          -0.076
2  RRIRMRPPRLPRPRPRPCFTPRP  shrunken log2 fold change          -0.123
3  RRIRDRPPRLPRPRPRPYDKPRP  shrunken log2 fold change          -0.149
4  RRIRIRPPRLPRPRPRPATRPRP  shrunken log2 fold change            0.19
5  RRIRDRPPRLPRPRPRPIYVPRP  shrunken log2 fold change         -0.0326
6  RRIRLRPPRLPRPRPRPHSHPRP  shrunken log2 fold change            1.65
7  RRIRIRPPRLPRPRPRPYGNPRP  shrunken log2 fold change           -1.18
8  RRIRPRPPRLPRPRPRPFDRPRP  shrunken log2 fold change          0.0133
9  RRIRTRPPRLPRPRPRPNIVPRP  shrunken log2 fold change          -0.192

**Query** Form field - read-out: shrunken log2 fold change; system: Escherichia coli TOP10; submitted item: RRIRTRPPRLPRPRPRPVRNPRP
**Result** 0.509

**Query** Quick one: RRIRMRPPRLPRPRPRPKMIPRP
**Result** -0.0167

**Query** Quick one: RRIRWRPPRLPRPRPRPQATPRP
**Result** 0.381

**Query** Quick one: RRIRGRPPRLPRPRPRPHDHPRP
**Result** -0.027

**Query** Quick one: RRIRLRPPRLPRPRPRPNWVPRP
**Result** -0.0131

====

System: Escherichia coli TOP10
Assay: shrunken log2 fold change of peptide-encoding DNA abundance (4.5 h post-induction vs induction); higher = less antimicrobial activity (less host growth inhibition)
Details: time post-induction: 4.5 h; library: site-saturation at positions 5, 18, 19, 20
Listed here are sequences together with their documented shrunken log2 fold change.

Below are worked cases with known answers.
In [3]: df
Out[3]:
          residue_sequence   result
0  RRIRVRPPRLPRPRPRPFFMPRP   -0.339
1  RRIRQRPPRLPRPRPRPKSAPRP  -0.0082
2  RRIRVRPPRLPRPRPRPNIEPRP   -0.616
3  RRIRRRPPRLPRPRPRPHDKPRP    0.302
4  RRIRIRPPRLPRPRPRPIGGPRP  -0.0686
5  RRIRARPPRLPRPRPRPMKKPRP    0.143

Could you now look at the following sequence, please?
**Query** Name the reported shrunken log2 fold change value associated with the sequence RRIRRRPPRLPRPRPRPGSHPRP
**Result** -0.154

====

System: Escherichia coli TOP10
Experiment: shrunken log2 fold change of peptide-encoding DNA abundance (4.5 h post-induction vs induction); higher = less antimicrobial activity (less host growth inhibition)
Details: time post-induction: 4.5 h; library: site-saturation at positions 5, 18, 19, 20
Would you mind classing the entries by shrunken log2 fold change? Ranges: low range = under -0.07, mid range = from -0.07 up to 0.08, high range = 0.08 and over

In [3]: df
Out[3]:
          residue_sequence  category_label
0  RRIRNRPPRLPRPRPRPGHFPRP       mid range
1  RRIRQRPPRLPRPRPRPRFFPRP      high range
2  RRIRNRPPRLPRPRPRPIIAPRP       low range
3  RRIRHRPPRLPRPRPRPPEVPRP       mid range
4  RRIRSRPPRLPRPRPRPIMLPRP       low range

**Query** Dear colleague, I would appreciate it if you could identify the bin for RRIRHRPPRLPRPRPRPHSYPRP and reply at your convenience.
**Result** low range

**Query** Quick one: RRIRPRPPRLPRPRPRPTMHPRP
**Result** mid range

**Query** Quick one: RRIRNRPPRLPRPRPRPKWLPRP
**Result** mid range

**Query** Quick one: RRIRARPPRLPRPRPRPVFPPRP
**Result** high range

**Query** Quick one: RRIRQRPPRLPRPRPRPVMNPRP
**Result** high range

====

Test system: Escherichia coli TOP10
Assay: shrunken log2 fold change of peptide-encoding DNA abundance (4.5 h post-induction vs induction); higher = less antimicrobial activity (less host growth inhibition)
Details: time post-induction: 4.5 h; library: site-saturation at positions 5, 18, 19, 20
rule met means recorded shrunken log2 fold change is 0.02 or above; rule not met means it is below 0.02.

See these solved cases before continuing.
In [3]: df
Out[3]:
          residue_sequence  category_label
0  RRIRTRPPRLPRPRPRPNGPPRP    rule not met
1  RRIRDRPPRLPRPRPRPGFEPRP        rule met
2  RRIRYRPPRLPRPRPRPLWIPRP    rule not met
3  RRIRVRPPRLPRPRPRPEYHPRP    rule not met

**Query** Hello, I need to know if RRIRERPPRLPRPRPRPPPIPRP has measured shrunken log2 fold change not below 0.02. Thanks!
**Result** rule met

**Query** Quick one: RRIRDRPPRLPRPRPRPHTSPRP
**Result** rule met

**Query** Quick one: RRIRCRPPRLPRPRPRPAIDPRP
**Result** rule not met

**Query** Quick one: RRIRRRPPRLPRPRPRPRDNPRP
**Result** rule met

**Query** Quick one: RRIRGRPPRLPRPRPRPYDDPRP
**Result** rule not met

**Query** Quick one: RRIRERPPRLPRPRPRPKMRPRP
**Result** rule met

====

System: Escherichia coli TOP10;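 also: peptides expressed intracellularly from a pBAD plasmid library in pooled LB shake-flask culture, induced with 0.3% L-arabinose, DNA abundance read by NGS, three biological replicates, DESeq2 with apeglm shrinkage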
Experiment: shrunken log2 fold change of peptide-encoding DNA abundance (4.5 h post-induction vs induction); higher = less antimicrobial activity (less host growth inhibition)
Conditions: time post-induction: 4.5 h; library: site-saturation at positions 5, 18, 19, 20
true means recorded shrunken log2 fold change is 0.1 or above; false means it is below 0.1.

See these solved cases before continuing.
>>> df
          residue_sequence          assayed_target  category_label
0  RRIRRRPPRLPRPRPRPPKRPRP  Escherichia coli TOP10            true
1  RRIRWRPPRLPRPRPRPQWRPRP  Escherichia coli TOP10           false
2  RRIRHRPPRLPRPRPRPLDEPRP  Escherichia coli TOP10           false

**Query** Hello, I need to know if RRIRYRPPRLPRPRPRPHMWPRP has measured shrunken log2 fold change not below 0.1. Thanks!
**Result** false

**Query** Quick one: RRIRERPPRLPRPRPRPLVKPRP
**Result** false

**Query** Quick one: RRIRERPPRLPRPRPRPYPGPRP
**Result** false

**Query** Quick one: RRIRVRPPRLPRPRPRPVNMPRP
**Result** false

**Query** Quick one: RRIRERPPRLPRPRPRPGEGPRP
**Result** false

**Query** Quick one: RRIRWRPPRLPRPRPRPTVFPRP
**Result** true

**Query** Quick one: RRIRYRPPRLPRPRPRPETIPRP
**Result** false

**Query** Quick one: RRIRQRPPRLPRPRPRPACNPRP
**Result** false

**Query** Quick one: RRIRSRPPRLPRPRPRPLQSPRP
**Result** true
